- assay-notes: NCI Yeast Anticancer Drug Screen. Data for the mec2-1 strain (AID 157)
- condition-notes: S. cerevisiae mec2-1 strain, at 5.0 µM (retest, dose inferred, filed as 0.5)
About 79,000 compounds went through this panel and 15% of them were active in at least one assay; those are over-represented in the sample as a whole. Active and inactive are the calls of the source. No stated cut-off is given here; in the data, active means growth inhibition above about 70%; inactive means the rest.
Labels: true for active, false for inactive

- O=C(O)Cc1ccc2c(c1)OCO2.[Ag]: true
- O=C1C(Cl)=C(Cl)C(=O)N1c1ccc(F)cc1: false
- Oc1cc[c]([Hg][Cl])cc1: true
- CCC[CH2][Sn]1([CH2]CCC)[O]CC(CN2CCCC2)[O]1 (stereo not given): false
- [O]=[Sb][c]1ccc(Cl)cc1: false
- NNc1ccccc1Cl: false
- CCC[CH2][Sn]([CH2]CCC)([CH2]CCC)[O]C(=O)C[N+](C)(C)c1cc[c]([Hg][c]2ccc(N(C)C)cc2)cc1: true
- C[C@@]12CCC(=O)C=C1CC[C@H]1C2=CC[C@]2(C)C1CC[C@@]2(C)O (stereo not given in full): false
- CC(NCCN(C)C)C1CC2CCCCN2C1 (stereo not given): false
- Oc1ccc2nc3ccccc3nc2c1: false
- O=C(CCl)c1ccc(O)cc1: false
- CCC[CH2][Pb]([Cl])([CH2]CCC)[CH2]CCC: true
- CCCCN(CC)CC(C(C)=O)c1c(O)c2ccccc2oc1=O (stereo not given): false
- CCC[CH2][Sn]1([CH2]CCC)[O]CC(c2ccccn2)C[O]1: false
- CN(/N=C/c1ccc(Cl)cc1)P(=O)(N1CC1)N1CC1: false

====

- assay-notes: NCI Yeast Anticancer Drug Screen. Data for the rad50 strain (AID 155);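 further: 0% = growth of vehicle-only cultures of the same strain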
- condition-notes: S. cerevisiae rad50 strain growth inhibition; at 3.7 µM; stronger effect = higher value
This is part of a sample that, as a whole, favours compounds with a hit. Of some 79,000 tested, about 15% had one in any assay.
measured-quantity: growth inhibition (%)

* CC(C)(C)c1cc([N+](=O)[O-])cc([N+](=O)[O-])c1O | -26
* CCCCN(CCCC)CC(C(C)=O)C(c1ccccc1)c1c(O)c2ccccc2oc1=O (centres undefined) | 2
* O=C(O)C1C2c3ccccc3C(c3ccccc32)C1C(=O)O (centres undefined) | 4
* CC1CC(Br)C(=O)O1 (centres undefined) | -55
* CCc1cccc(C(C)C)c1NC1=C([n+]2ccc(C)cc2)C(=O)c2ccccc2C1=O | 0
* CC1CC(C)CC(C)C(O)/C(C#N)=C/C=C/CC(C2CCCC2C(=O)O)OC(=O)CC(O)C(C)C1 (centres undefined) | 97
* COc1cc(C2c3cc4c(cc3[C@@H](Nc3ccc(N)cc3)C3COC(=O)[C@H]23)OCO4)cc(OC)c1O (some centres undefined) | 95
* CC[C@]1(O)CC(OC2CC(N(C)C)C(O)C(C)O2)c2c(cc3c(c2O)C(=O)c2c(O)cccc2C3=O)[C@@H]1C(=O)OC (some centres undefined) | 75
* Cc1ccc2c(c1N)C(=O)c1ccccc1C2=O | 19
* O=S(=O)(O)/C(=C\c1ccccc1)c1ccccc1 (tested in a mixture with another compound) | -5
* CC(=O)[O-].O=C([CH-]C(=O)c1ccccc1)c1ccccc1.O=C([CH-]C(=O)c1ccccc1)c1ccccc1.[Sm+3] | -5
* Cc1c(N)nc([C@H](CC(N)=O)NC[C@H](N)C(N)=O)nc1C(=O)N[C@H](C(=O)N[C@H](C)[C@@H](O)[C@H](C)C(=O)N[C@H](C(=O)NCCc1nc(-c2nc(C(=O)NCCC[S+](C)C)cs2)cs1)[C@@H](C)O)C(OC1OC(CO)C(O)C(O)C1OC1OC(CO)C(O)C(OC(N)=O)C1O)c1cnc[nH]1 (some centres undefined) | 27
* O=C1NC(=S)NC(=O)C1=Cc1ccc([N+](=O)[O-])o1 | 17
* COC(=O)C1=C(C(=O)OC)C2OC1c1cc3ccccc3cc12 | 37
* N#CC(C#N)=Cc1ccc(C#N)cc1 | -4
* C[CH2][Sn]1([CH2]C)[O]C2C(O)OC(CO)C(O)C2[O]1 (centres undefined) | 12
* COc1cc([C@@H]2c3cc4c(cc3C[C@@H]3COC(=O)C32)OCO4)cc(OC)c1O (some centres undefined) | 76
* c1ccc2cc3n[se]nc3cc2c1 | 5
* Oc1cccc2nc3ccccc3nc12 | -8
